# run-conditions: Ebola virus entry assay, reporter ratio channel; Channel type: primary
Activity calls are given as the source filed them. Square brackets hold non-standard residues; d marks the D form. Peptide text beside a SMILES is read from it. * marks the point of attachment. Sta = CC(C)C[C@H](N)[C@@H](O)CC(=O)O; Isovaleryl = CC(C)CC(=O)*
Output constraint: value belongs to active, inactive

[in] Dear colleague, could you share the recorded outcome for CC(C)CC(=O)N[C@H](C(=O)N[C@H](C(=O)N[C@@H](CC(C)C)[C@@H](O)CC(=O)N[C@@H](C)C(=O)N[C@@H](CC(C)C)[C@@H](O)CC(=O)O)C(C)C)C(C)C (Isovaleryl-VV[Sta]A[Sta]-OH) when you have a moment?
[out] inactive

[in] Dear colleague, could you share the recorded outcome for CCc1ccc(C2CCNCC2)cc1 when you have a moment?
[out] active

[in] Dear colleague, could you share the recorded outcome for CCCCN(CCCC)C(C(N)=O)c1ccc(OC)cc1 (stereo not given) when you have a moment?
[out] inactive

[in] Dear colleague, could you share the recorded outcome for COc1ccccc1N1CCN(CC(O)COc2cccc3ccccc23)CC1 (stereo not given) when you have a moment?
[out] active

[in] Dear colleague, could you share the recorded outcome for C[C@@H]1CC[C@H]2[C@@H](C)C(=O)O[C@@H]3O[C@@]4(C)CC[C@@H]1[C@]32OO4 when you have a moment?
[out] inactive

* * *

# procedure-summary: qHTS assay to identify small molecule inhibitors of chordoma cells - UCH-1 (AID 1259355); note: nearly all actives have a fitted effect of over 55% in size
# run-conditions: UCH-1 chordoma viability, CellTiter-Glo, 48 h, combination; series mostly up to 46.1 µM
Records with an inconclusive call do not appear. Active and inactive are the calls of the source. Calls follow the shape of the dose curve; as a rule, active = well fitted cell-killing curve with a large enough effect; inconclusive = small, poorly fitted or top-dose-only effect, or effect the other way; inactive = no such curve, though single readings can be large or run the other way.
Output constraint: value belongs to class 1 for active, class 0 for inactive

[in] Dear colleague, could you share the recorded outcome for c1cc2c(c(N3CCNCC3)c1)OCCO2 when you have a moment?
[out] class 0

[in] Dear colleague, could you share the recorded outcome for O=C(NC(=O)c1c(F)cccc1F)Nc1cc(Cl)c(OC(F)(F)C(F)C(F)(F)F)cc1Cl (stereo not drawn) when you have a moment?
[out] class 0

[in] Dear colleague, could you share the recorded outcome for C[C@H](N)[C@H](O)c1ccc(O)c(O)c1 when you have a moment?
[out] class 0

[in] Dear colleague, could you share the recorded outcome for COC(=O)C1=CCCN(C)C1 when you have a moment?
[out] class 0

[in] Dear colleague, could you share the recorded outcome for C[N+]1(CCC(C(N)=O)(c2ccccc2)c2ccccc2)CCCCC1 when you have a moment?
[out] class 0

[in] Dear colleague, could you share the recorded outcome for CC(C)C(Br)C(=O)NC(N)=O (stereo not drawn) when you have a moment?
[out] class 0

[in] Dear colleague, could you share the recorded outcome for COc1cc(N)c(Cl)cc1C(=O)NC1CN2CCC1CC2 (stereo not drawn) when you have a moment?
[out] class 0

[in] Dear colleague, could you share the recorded outcome for CCC(=O)O[C@H]1CC[C@H]2[C@@H]3CCC4=CC(=O)CC[C@]4(C)[C@H]3CC[C@]12C when you have a moment?
[out] class 0

[in] Dear colleague, could you share the recorded outcome for C=CCOC(Cn1ccnc1)c1ccc(Cl)cc1Cl (stereo not drawn) when you have a moment?
[out] class 0

[in] Dear colleague, could you share the recorded outcome for C[N+]1(C)[C@@H]2CC[C@H]1CC(OC(=O)C(CO)c1ccccc1)C2 (stereo partly drawn) when you have a moment?
[out] class 0

[in] Dear colleague, could you share the recorded outcome for CCN(Cc1ccc(Cl)nc1)/C(=C/[N+](=O)[O-])NC when you have a moment?
[out] class 0

[in] Dear colleague, could you share the recorded outcome for NC(=O)OCCCc1ccccc1 when you have a moment?
[out] class 0

[in] Dear colleague, could you share the recorded outcome for O=C1NCN(c2ccccc2)C12CCN(CCCOc1ccc(F)cc1)CC2 when you have a moment?
[out] class 0

[in] Dear colleague, could you share the recorded outcome for CC(C)=C[C@@H]1[C@@H](C(=O)OCc2coc(Cc3ccccc3)c2)C1(C)C when you have a moment?
[out] class 0

[in] Dear colleague, could you share the recorded outcome for C[C@@H]1CC[C@H]2[C@@H](C)C(=O)O[C@@H]3O[C@@]4(C)CC[C@@H]1[C@]32OO4 when you have a moment?
[out] class 0

[in] Dear colleague, could you share the recorded outcome for CC(C)NCC(O)c1ccc(N)c(C#N)c1 (stereo not drawn) when you have a moment?
[out] class 0

[in] Dear colleague, could you share the recorded outcome for Nc1ccc(N)cc1 when you have a moment?
[out] class 0

[in] Dear colleague, could you share the recorded outcome for CNC(=O)NC(O)C(Cl)(Cl)Cl (stereo not drawn) when you have a moment?
[out] class 0

[in] Dear colleague, could you share the recorded outcome for CC(C)(C)OC(=O)c1ncn2c1[C@@H]1CCCN1C(=O)c1c(Br)cccc1-2 when you have a moment?
[out] class 0

[in] Dear colleague, could you share the recorded outcome for C[C@@H]1O[C@@H](O[C@@H]2C=C3CC[C@@H]4[C@H](CC[C@]5(C)[C@@H](c6ccc(=O)oc6)CC[C@]45O)[C@@]3(C)CC2)[C@H](O)[C@H](O)[C@H]1O when you have a moment?
[out] class 1

[in] Dear colleague, could you share the recorded outcome for CCCC(C)C1(CC)C(=O)N=C(S)NC1=O (stereo not drawn) when you have a moment?
[out] class 0

[in] Dear colleague, could you share the recorded outcome for CCN(CC)CCOC(=O)C(C)(c1ccccc1)c1ccccc1 when you have a moment?
[out] class 0

[in] Dear colleague, could you share the recorded outcome for C[C@]12CC[C@H]3[C@@H](CC=C4C[C@@H](O)CC[C@@]43C)[C@@H]1CC[C@@H]2O when you have a moment?
[out] class 0

* * *

# procedure-summary: Primary qHTS for inhibitors of La Crosse Virus (LACV) - induced cell death in SH-SY5Y cells (AID 1508616);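 note: top concentration of the series differs between compounds; 0% = infected DMSO wells and 100% = uninfected DMSO wells; higher means more rescue of cells from virus-induced death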
# run-conditions: SH-SY5Y LACV cytopathicity rescue, ATP luminescence, 6 d; series mostly up to 4.29 µM
Results filed as inconclusive are left out. Activity calls are given as the source filed them. The call rests on the fitted dose curve; in most records, active means well fitted inhibition curve with a large enough effect; inconclusive means small, poorly fitted or top-dose-only effect; inactive means no such curve, though single readings can be large or run the other way.
metric-name: outcome

CCC(=O)C(CCN(C)C)(c1ccccc1)c1ccccc1    inactive
CN1CCC(N(Cc2ccccc2)c2ccccc2)CC1    inactive
CC(CC(C#N)(c1ccccc1)c1ccccc1)N(C)C (centres undefined)    inactive
C[N+](C)(C)CCOC(=O)C(O)(c1ccccc1)c1ccccc1    inactive

* * *

# Tested on: ICS
# procedure-summary: qHTS profiling for inhibitors of Plasmodium falciparum proliferation (AID 504749); note: nearly all actives have a fitted effect of over 60% in size
# run-conditions: P. falciparum in erythrocytes, SYBR Green DNA, 72 h; series mostly up to 28.7 µM
Inconclusive results are not listed. Calls of active or inactive are those of the source. Calls follow the shape of the dose curve; as a rule, active = well fitted inhibition curve with a large enough effect; inconclusive = small, poorly fitted or top-dose-only effect; inactive = flat fitted curve, though single readings scatter.
Output constraint: value belongs to t = active, f = inactive

[in] Dear colleague, could you share the recorded outcome for CN1C(=O)CN=C(c2ccccc2)c2cc([N+](=O)[O-])ccc21 when you have a moment?
[out] f

[in] Dear colleague, could you share the recorded outcome for N#Cc1nn(-c2c(Cl)cc(C(F)(F)F)cc2Cl)c(N)c1S(=O)C(F)(F)F (configuration not stated) when you have a moment?
[out] t

[in] Dear colleague, could you share the recorded outcome for CN(C)C(=S)SSC(=S)N(C)C when you have a moment?
[out] t

[in] Dear colleague, could you share the recorded outcome for c1cc2c(c(N3CCNCC3)c1)OCCO2 when you have a moment?
[out] f

[in] Dear colleague, could you share the recorded outcome for COC(=O)C1=CCCN(C)C1 when you have a moment?
[out] f

[in] Dear colleague, could you share the recorded outcome for Cc1ncc2n1-c1ccc(Cl)cc1C(c1ccccc1F)=NC2 when you have a moment?
[out] f

[in] Dear colleague, could you share the recorded outcome for Cc1c(Cl)c(=O)oc2cc(OP(=O)(OCCCl)OCCCl)ccc12 when you have a moment?
[out] t

[in] Dear colleague, could you share the recorded outcome for CC(C)C(Br)C(=O)NC(N)=O (configuration not stated) when you have a moment?
[out] f

[in] Dear colleague, could you share the recorded outcome for COP(=S)(OC)Oc1ccc(Sc2ccc(OP(=S)(OC)OC)cc2)cc1 when you have a moment?
[out] f

[in] Dear colleague, could you share the recorded outcome for O=C(O)c1nn(Cc2ccc(Cl)cc2Cl)c2ccccc12 when you have a moment?
[out] f

[in] Dear colleague, could you share the recorded outcome for C[N+](C)(C)CCOC(=O)C(O)(c1ccccc1)c1ccccc1 when you have a moment?
[out] f

[in] Dear colleague, could you share the recorded outcome for CCNc1nc(Cl)nc(NCC)n1 when you have a moment?
[out] f

* * *

# target-system: Cytochrome P450 2C9 (Homo sapiens) (UniProt P11712)
# Sequence (P11712 whole entry, looked up): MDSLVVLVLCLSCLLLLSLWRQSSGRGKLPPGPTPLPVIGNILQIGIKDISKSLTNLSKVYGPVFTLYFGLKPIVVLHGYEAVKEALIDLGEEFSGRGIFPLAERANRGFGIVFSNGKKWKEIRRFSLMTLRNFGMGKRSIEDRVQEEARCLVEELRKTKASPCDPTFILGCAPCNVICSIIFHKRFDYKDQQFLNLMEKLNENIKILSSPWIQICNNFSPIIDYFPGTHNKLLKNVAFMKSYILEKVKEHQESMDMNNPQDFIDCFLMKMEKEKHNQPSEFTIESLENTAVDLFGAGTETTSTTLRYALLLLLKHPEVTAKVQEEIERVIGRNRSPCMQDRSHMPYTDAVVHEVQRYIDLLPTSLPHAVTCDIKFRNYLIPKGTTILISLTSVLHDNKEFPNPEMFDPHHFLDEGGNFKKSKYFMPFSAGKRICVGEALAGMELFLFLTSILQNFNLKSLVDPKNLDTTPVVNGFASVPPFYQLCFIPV
# procedure-summary: Cytochrome P450 family 2 subfamily C member 9 (CYP2C9) small molecule antagonists: luciferase biochemical (cell-free) qHTS assay (AID 1645842); note: nearly all actives have a fitted effect of over 55% in size
# run-conditions: P450-Glo CYP2C9 enzyme assay, luciferin luminescence; series mostly up to 57.4 µM
Inconclusive results are not listed. Calls of active or inactive are those of the source. Calls follow the shape of the dose curve; as a rule, active = well fitted inhibition curve with a large enough effect in the repeat runs; inconclusive = weak or mixed curves; inactive = no such curve, though single readings can be large or run the other way.
Output constraint: value belongs to Yes for active, No for inactive

[in] Dear colleague, could you share the recorded outcome for ClCc1cccc(Cl)c1 when you have a moment?
[out] No

[in] Dear colleague, could you share the recorded outcome for C[C@]12CC[C@H](O)CC1=CC[C@@H]1[C@@H]2CC[C@]2(C)C(=O)CC[C@@H]12 when you have a moment?
[out] No

[in] Dear colleague, could you share the recorded outcome for O=C(O)c1nn(Cc2ccc(Cl)cc2Cl)c2ccccc12 when you have a moment?
[out] No

[in] Dear colleague, could you share the recorded outcome for CC(Cc1ccccc1)NCCCCl (configuration not stated) when you have a moment?
[out] No

[in] Dear colleague, could you share the recorded outcome for NC(=O)OCCCc1ccccc1 when you have a moment?
[out] No

[in] Dear colleague, could you share the recorded outcome for CNC(=O)Oc1cccc2ccccc12 when you have a moment?
[out] No

[in] Dear colleague, could you share the recorded outcome for CC(C)=C[C@@H]1[C@@H](C(=O)OCc2coc(Cc3ccccc3)c2)C1(C)C when you have a moment?
[out] Yes

[in] Dear colleague, could you share the recorded outcome for CN1C(=O)[C@@H](NC(=O)c2cc3ccccc3[nH]2)N=C(c2ccccc2)c2ccccc21 when you have a moment?
[out] Yes

[in] Dear colleague, could you share the recorded outcome for COCC(=O)N(c1c(C)cccc1C)C(C)C(=O)OC (configuration not stated) when you have a moment?
[out] No

[in] Dear colleague, could you share the recorded outcome for COP(=S)(OC)Oc1ccc(S(N)(=O)=O)cc1 when you have a moment?
[out] Yes

[in] Dear colleague, could you share the recorded outcome for Cc1ccc([N+](=O)[O-])[c]2c1[O][Hg]2 when you have a moment?
[out] Yes

[in] Dear colleague, could you share the recorded outcome for CCN(CC)C(C)C(=O)c1ccccc1 (configuration not stated) when you have a moment?
[out] No
